All figures here come from ChEMBL document CHEMBL1127438.

assayed target: D(2) dopamine receptor (Homo sapiens)
Sequence (P14416 whole entry): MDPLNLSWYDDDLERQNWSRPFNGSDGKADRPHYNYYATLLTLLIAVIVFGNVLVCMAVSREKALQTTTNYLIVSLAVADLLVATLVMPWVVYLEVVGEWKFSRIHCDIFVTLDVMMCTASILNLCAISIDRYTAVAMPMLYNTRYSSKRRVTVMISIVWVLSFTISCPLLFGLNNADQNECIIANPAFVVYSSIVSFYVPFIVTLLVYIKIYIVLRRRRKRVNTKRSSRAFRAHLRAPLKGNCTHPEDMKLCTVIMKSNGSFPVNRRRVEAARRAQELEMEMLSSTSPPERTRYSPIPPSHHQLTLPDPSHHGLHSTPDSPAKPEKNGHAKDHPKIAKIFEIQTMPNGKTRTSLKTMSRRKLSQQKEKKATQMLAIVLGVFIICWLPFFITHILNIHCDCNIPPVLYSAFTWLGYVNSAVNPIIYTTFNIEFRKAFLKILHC
test details: biochemical
Description: In vitro binding affinity against cloned mammalian dopamine D2 autoreceptor, expressed in CHO-K1 cells, using [3H]U-86170 as radioligand
Answer each item with its documented Ki.
Answer in nM, number only, no unit symbol.

Lab note: CCC(C)N1CCC[C@@H](c2cccc(C#N)c2)C1 (stereo partly drawn) gave Ki of 187

Lab note: `N#Cc1cccc([C@@H]2CCCN(CC3CC3)C2)c1` gave Ki of 519

Lab note: `CCCN1CCC[C@@H](c2cccc(OS(C)(=O)=O)c2)C1` gave Ki of 192

Lab note: `CCCN1CCC[C@@H](c2cccc(OC)c2)C1` gave Ki of 602

Lab note: `CN1CCC[C@@H](c2cccc(C#N)c2)C1` gave Ki of 1040

Lab note: C=CCN1CCC2c3cccc(C#N)c3CCC21 (stereo not drawn) gave Ki of 984

Lab note: `CC(C)N1CCC[C@@H](c2cccc(C#N)c2)C1` gave Ki of 106

Lab note: `N#Cc1cccc([C@@H]2CCCN(CCc3ccccc3)C2)c1` gave Ki of 22

Lab note: `C#CCN1CCC[C@@H](c2cccc(C#N)c2)C1` gave Ki of 1180

Lab note: `CCCN1CCC[C@@H](c2cccc(-c3ccsc3)c2)C1` gave Ki of 134

Lab note: `C=CCN1CCC[C@@H](c2cccc(C#N)c2)C1` gave Ki of 254

Lab note: `CCCN1CCC[C@@H](c2cccc(S(C)(=O)=O)c2)C1` gave Ki of 447

Lab note: `CCN1CCC[C@@H](c2cccc(C#N)c2)C1` gave Ki of 235

Lab note: `CCCN1CCC[C@@H](c2cccc(C#N)c2)C1` gave Ki of 119

Lab note: `N#Cc1cccc([C@@H]2CCCN(CCCc3ccccc3)C2)c1` gave Ki of 29

Lab note: `CCCN1CCC[C@@H](c2cccc(CO)c2)C1` gave Ki of 240

Lab note: `CCCN1CCC[C@@H](c2cccc(CC#N)c2)C1` gave Ki of 69

Lab note: `CCCN1CCC[C@@H](c2cccc(OCC(F)(F)F)c2)C1` gave Ki of 820

Lab note: `N#Cc1cccc([C@@H]2CCCNC2)c1` gave Ki of 314

---

Answer each item with its documented Ki.
Answer in nM, number only, no unit symbol.

`CCCN1CCC[C@@H](c2cccc(-c3ccsc3)c2)C1` on D(2) dopamine receptor (Rattus norvegicus, UniProt P61169) gives Ki = 760

`CCCN1CCC[C@@H](c2cccc(C(C)=O)c2)C1` on D(2) dopamine receptor (Rattus norvegicus, UniProt P61169) gives Ki = 6540

`CCN1CCC[C@@H](c2cccc(C#N)c2)C1` on D(2) dopamine receptor (Rattus norvegicus, UniProt P61169) gives Ki = 2330

`CCCN1CCC[C@@H](c2cccc(N)c2)C1` on D(2) dopamine receptor (Rattus norvegicus, UniProt P61169) gives Ki = 2000

`CCCN1CCC[C@@H](c2cccc(C(=O)OC)c2)C1` on D(2) dopamine receptor (Rattus norvegicus, UniProt P61169) gives Ki = 2170

`CCCN1CCC[C@@H](c2cccc(S(=O)(=O)N(C)C)c2)C1` on D(2) dopamine receptor (Rattus norvegicus, UniProt P61169) gives Ki = 3390

`CC(C)N1CCC[C@@H](c2cccc(C#N)c2)C1` on D(2) dopamine receptor (Rattus norvegicus, UniProt P61169) gives Ki = 717

`CCCN1CCC[C@@H](c2cccc(CO)c2)C1` on D(2) dopamine receptor (Rattus norvegicus, UniProt P61169) gives Ki = 410

`CCCN1CCC[C@@H](c2cccc(CC#N)c2)C1` on D(2) dopamine receptor (Rattus norvegicus, UniProt P61169) gives Ki = 1230

`CCCN1CCC[C@@H](c2cccc(S(C)(=O)=O)c2)C1` on D(2) dopamine receptor (Rattus norvegicus, UniProt P61169) gives Ki = 6270

---

System: Rattus norvegicus
test details: Evaluated biochemically in nonpretreated habituated rats for (100 uM/kg) subcuteneous dose, Value expressed as locomotor activity (LMA)
Format: functional
Answer each item with its documented Control.
For clarity, give the value followed by its unit.

Lab note: `CCCN1CCC[C@@H](c2cccc(OS(C)(=O)=O)c2)C1` gave Control of 576%

Lab note: `N#Cc1cccc([C@@H]2CCCNC2)c1` gave Control of 575%

Lab note: `CCCN1CCC[C@@H](c2cccc(C(C)=O)c2)C1` gave Control of 824%

Lab note: `N#Cc1cccc([C@@H]2CCCN(CCc3ccccc3)C2)c1` gave Control of 510%

Lab note: `CCCN1CCC[C@@H](c2cccc(CO)c2)C1` gave Control of 187%

Lab note: `CCCN1CCC[C@@H](c2cccc(CC#N)c2)C1` gave Control of 887%

Lab note: `CCCN1CCC[C@@H](c2cccc(O)c2)C1` gave Control of 119%

Lab note: `CCCN1CCC[C@@H](c2cccc(C(N)=O)c2)C1` gave Control of 203%

Lab note: `CCCN1CCC[C@@H](c2cccc(NS(=O)(=O)C(F)(F)F)c2)C1` gave Control of 305%

Lab note: `CCCN1CCC[C@@H](c2cccc(S(=O)(=O)N(C)C)c2)C1` gave Control of 548%

Lab note: `CCCN1CCC[C@@H](c2cccc(OC)c2)C1` gave Control of 463%

Lab note: CCC(C)N1CCC[C@@H](c2cccc(C#N)c2)C1 (some centres undefined) gave Control of 346%

Lab note: `C=CCN1CC[C@H]2c3cccc(OC)c3CC[C@H]21` gave Control of 182%

Lab note: `CCCN1CCC[C@@H](c2cccc(-c3ccsc3)c2)C1` gave Control of 229%

Lab note: `CCCCN1CCC[C@@H](c2cccc(C#N)c2)C1` gave Control of 1382%

Lab note: C=CCN1CCC2c3cccc(C#N)c3CCC21 (centres undefined) gave Control of 292%

Lab note: `CCCN1CCC[C@@H](c2cccc(S(C)(=O)=O)c2)C1` gave Control of 368%

Lab note: `CCCN1CCC[C@@H](c2cccc(N)c2)C1` gave Control of 113%

Lab note: `CC(C)N1CCC[C@@H](c2cccc(C#N)c2)C1` gave Control of 366%

Lab note: `CCCN[C@@H]1CCc2c(OC)cccc2[C@@H]1C` gave Control of 354%

Lab note: `CCN1CCC[C@@H](c2cccc(C#N)c2)C1` gave Control of 351%

Lab note: `C#CCN1CCC[C@@H](c2cccc(C#N)c2)C1` gave Control of 297%

Lab note: `CCCN1CCC[C@@H](c2cccc(C(=O)OC)c2)C1` gave Control of 297%

Lab note: `N#Cc1cccc([C@@H]2CCCN(CCCc3ccccc3)C2)c1` gave Control of 484%

---

assayed target: D(2) dopamine receptor (Rattus norvegicus)
Sequence (P61169 whole entry): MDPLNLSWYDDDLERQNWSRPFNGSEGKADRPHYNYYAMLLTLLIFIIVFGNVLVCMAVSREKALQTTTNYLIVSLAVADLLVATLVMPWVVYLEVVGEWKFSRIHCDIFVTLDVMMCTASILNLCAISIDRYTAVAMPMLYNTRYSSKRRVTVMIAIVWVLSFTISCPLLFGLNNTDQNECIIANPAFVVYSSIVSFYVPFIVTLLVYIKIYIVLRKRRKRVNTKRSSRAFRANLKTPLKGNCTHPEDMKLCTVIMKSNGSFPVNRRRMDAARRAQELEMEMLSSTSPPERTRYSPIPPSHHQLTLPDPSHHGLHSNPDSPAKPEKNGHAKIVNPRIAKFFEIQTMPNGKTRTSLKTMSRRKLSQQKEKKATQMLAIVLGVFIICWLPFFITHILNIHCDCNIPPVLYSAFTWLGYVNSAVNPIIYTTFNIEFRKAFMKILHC
test details: Tested for affinity against striatal dopamine autoreceptor (DA) D2 receptors using [3H]spiperone as radioligand in rats.
quantity: Ki (nM)
Answer in nM, number only, no unit symbol.

Lab note: `CCCN1CCC[C@@H](c2cccc(Br)c2)C1` gave Ki of 533

Lab note: `CCCN1CCC[C@@H](c2cccc(SC)c2)C1` gave Ki of 849

Lab note: `CCCN1CCC[C@@H](c2cccc(C=O)c2)C1` gave Ki of 1120

Lab note: `CCCc1cccc([C@@H]2CCCN(CCC)C2)c1` gave Ki of 392

Lab note: CCCN1CCCC2c3cccc(OS(=O)(=O)C(F)(F)F)c3CCC21 (stereo in doubt; 46) gave Ki of 64

Lab note: `CCCN1CCC[C@@H](c2ccccc2)C1` gave Ki of 1490

Lab note: `CCCN1CCC[C@@H](c2cccc(OS(=O)(=O)c3ccc(C)cc3)c2)C1` gave Ki of 1320

Lab note: `CCCN1CCC[C@@H](c2cccc(C)c2)C1` gave Ki of 930

Lab note: `O=S(=O)(Oc1cccc([C@@H]2CCCN(CCc3ccccc3)C2)c1)C(F)(F)F` gave Ki of 40

Lab note: `CN(C)CCCN1CCC[C@@H](c2cccc(C#N)c2)C1` gave Ki of 2330

---

Species: Rattus norvegicus
test details: Compound is tested for concomitant ability to antagonize the locomotor activity induced by Di-Pr-5,6-ADTN
Assay type: functional
Answer each item with its documented LMA.
Answer in %, number only, no unit symbol.

Lab note: `CCCN1CCC[C@@H](c2ccccc2)C1` gave LMA of 90

Lab note: `O=C(CCCN1CCC(O)(c2ccc(Cl)cc2)CC1)c1ccc(F)cc1` gave LMA of 7

Lab note: `CCCN1CCC[C@@H](c2cccc(OS(=O)(=O)C(F)(F)F)c2)C1` gave LMA of 78

Lab note: CCCN(CCC)C1CCc2c(ccc(O)c2O)C1 (centres undefined) gave LMA of 100
